- system-under-test: T1, human CTGF (Homo sapiens, UniProt P29279, H83D)
- T1 construct: purchased R&D Systems
- T1 sequence (P29279 27-349 H83D): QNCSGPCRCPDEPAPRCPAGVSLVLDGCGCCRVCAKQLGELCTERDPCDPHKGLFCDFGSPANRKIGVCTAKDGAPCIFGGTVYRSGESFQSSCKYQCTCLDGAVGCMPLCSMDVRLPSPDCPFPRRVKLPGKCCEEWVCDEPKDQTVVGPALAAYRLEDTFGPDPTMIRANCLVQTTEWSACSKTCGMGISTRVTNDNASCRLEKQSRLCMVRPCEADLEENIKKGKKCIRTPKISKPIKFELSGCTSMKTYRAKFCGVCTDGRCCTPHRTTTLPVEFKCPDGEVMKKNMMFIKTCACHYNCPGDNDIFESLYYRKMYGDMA
- test-name: ELISA binding to full-length human CTGF (Example 9)
- test-context: coated 1 μg/ml, muteins from 1000 nM, read-out: EC Human CTGF
quantity-kind: pEC50
Interpret pEC50 as the negative base-10 log of the concentration measured in mol/L.

Request: So what's the measured pEC50 for this one? SEQ ID NO: 7: parent CTGF-binding hNGAL lipocalin mutein (protein, lipocalin mutein) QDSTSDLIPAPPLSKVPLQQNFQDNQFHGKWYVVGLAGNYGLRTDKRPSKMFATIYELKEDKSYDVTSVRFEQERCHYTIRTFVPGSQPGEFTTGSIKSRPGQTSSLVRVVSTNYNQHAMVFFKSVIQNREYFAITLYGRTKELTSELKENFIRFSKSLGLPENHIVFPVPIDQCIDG
Response: 7.47
